tgt: Indolethylamine N-methyltransferase (Oryctolagus cuniculus)
Sequence (O97972 whole entry): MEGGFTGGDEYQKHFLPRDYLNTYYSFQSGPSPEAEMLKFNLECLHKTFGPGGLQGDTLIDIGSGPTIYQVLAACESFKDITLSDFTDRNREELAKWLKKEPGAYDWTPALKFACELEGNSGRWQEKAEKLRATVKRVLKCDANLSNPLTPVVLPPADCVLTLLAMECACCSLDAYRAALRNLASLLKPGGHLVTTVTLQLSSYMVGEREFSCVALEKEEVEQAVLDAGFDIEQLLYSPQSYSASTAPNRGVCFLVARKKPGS
experiment-notes: Inhibition of New Zealand white rabbit lung INMT using N-methyltryptamine as substrate after 60 to 90 mins by liquid scintillation counting in presence of S-methyl-[14C]adenosylmethionine
readout-label: pIC50
Formally, pIC50 is defined as -log10 of the concentration c, with c in mol/L.

Entry `C1CN=C2CCCN2C1` has what pIC50?
4.41
